- TEST NAME: Passive permeability of compound in MDCK cells
- Type: ADME, cell-based, Canis lupus familiaris
- CONDITION PARAMETERS: dog, read-out: permeability
Would you kindly list Papp for each of these molecules?
I'd appreciate it if you wrote the number followed by its unit.

[Q] Look up and state reported Papp for `Cc1cccc([C@H](CC(=O)O)C(=O)N2CC[C@@H](CCc3ccc4c(n3)NCCC4)C2)c1`
[A] 17.6 ×10⁻⁶ cm/s

[Q] Look up and state reported Papp for `O=C(O)C[C@H](C(=O)N1CC[C@@H](CCc2ccc3c(n2)NCCC3)C1)c1cccc(C(F)(F)F)c1`
[A] 29.5 ×10⁻⁶ cm/s

[Q] Look up and state reported Papp for `N#Cc1cccc([C@H](CC(=O)O)C(=O)N2CC[C@@H](CCc3ccc4c(n3)NCCC4)C2)c1`
[A] 5.7 ×10⁻⁶ cm/s

---

Would you kindly list pIC50 for each of these compounds?
- MEASURED TARGET: Integrin alpha-V/beta-3 (Homo sapiens, UniProt P05106+P06756)
- Sequence (P05106 27-788 limits assumed): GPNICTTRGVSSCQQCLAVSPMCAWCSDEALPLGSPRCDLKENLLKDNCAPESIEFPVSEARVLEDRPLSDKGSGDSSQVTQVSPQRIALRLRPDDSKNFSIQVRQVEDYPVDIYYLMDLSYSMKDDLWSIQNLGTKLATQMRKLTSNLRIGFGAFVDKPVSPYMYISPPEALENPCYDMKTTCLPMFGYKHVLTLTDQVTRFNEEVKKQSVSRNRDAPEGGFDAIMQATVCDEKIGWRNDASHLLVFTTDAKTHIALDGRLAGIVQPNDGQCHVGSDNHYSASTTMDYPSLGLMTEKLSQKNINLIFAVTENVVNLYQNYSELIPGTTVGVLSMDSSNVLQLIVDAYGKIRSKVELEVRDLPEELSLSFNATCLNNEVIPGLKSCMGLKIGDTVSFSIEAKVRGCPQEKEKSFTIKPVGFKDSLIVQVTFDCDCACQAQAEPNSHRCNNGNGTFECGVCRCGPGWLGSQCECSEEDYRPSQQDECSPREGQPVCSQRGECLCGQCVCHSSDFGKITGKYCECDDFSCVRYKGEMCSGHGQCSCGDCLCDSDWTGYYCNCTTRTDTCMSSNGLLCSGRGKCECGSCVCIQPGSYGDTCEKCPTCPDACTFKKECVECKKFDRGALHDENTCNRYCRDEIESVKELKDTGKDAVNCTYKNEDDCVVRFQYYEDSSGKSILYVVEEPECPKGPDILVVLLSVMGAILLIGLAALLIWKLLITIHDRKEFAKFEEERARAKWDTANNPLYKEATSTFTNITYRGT
- Sequence (P06756 31-889 limits assumed): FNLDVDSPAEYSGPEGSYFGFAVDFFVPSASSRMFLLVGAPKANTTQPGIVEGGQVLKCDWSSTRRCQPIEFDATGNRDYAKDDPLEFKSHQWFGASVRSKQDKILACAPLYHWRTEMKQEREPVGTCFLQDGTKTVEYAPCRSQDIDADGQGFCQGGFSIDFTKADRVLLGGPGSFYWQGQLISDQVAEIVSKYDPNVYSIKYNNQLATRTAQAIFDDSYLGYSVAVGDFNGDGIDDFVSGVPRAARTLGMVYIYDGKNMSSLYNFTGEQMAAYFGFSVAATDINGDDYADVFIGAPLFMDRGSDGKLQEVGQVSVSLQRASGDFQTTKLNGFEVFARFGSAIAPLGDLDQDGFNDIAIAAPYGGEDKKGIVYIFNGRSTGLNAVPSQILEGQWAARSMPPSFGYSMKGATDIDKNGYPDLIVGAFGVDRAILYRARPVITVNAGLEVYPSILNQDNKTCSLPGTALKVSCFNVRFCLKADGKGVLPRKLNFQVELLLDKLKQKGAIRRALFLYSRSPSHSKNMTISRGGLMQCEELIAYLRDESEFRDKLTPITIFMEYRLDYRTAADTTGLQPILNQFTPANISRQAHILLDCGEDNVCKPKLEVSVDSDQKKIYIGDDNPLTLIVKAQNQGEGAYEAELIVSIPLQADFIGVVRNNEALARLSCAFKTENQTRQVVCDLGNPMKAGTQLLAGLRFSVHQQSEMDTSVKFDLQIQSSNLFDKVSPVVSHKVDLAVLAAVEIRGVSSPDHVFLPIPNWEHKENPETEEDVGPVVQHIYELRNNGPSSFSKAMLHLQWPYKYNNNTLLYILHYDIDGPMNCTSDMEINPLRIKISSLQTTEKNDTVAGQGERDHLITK
- Sequence (P06756 891-1048 limits assumed): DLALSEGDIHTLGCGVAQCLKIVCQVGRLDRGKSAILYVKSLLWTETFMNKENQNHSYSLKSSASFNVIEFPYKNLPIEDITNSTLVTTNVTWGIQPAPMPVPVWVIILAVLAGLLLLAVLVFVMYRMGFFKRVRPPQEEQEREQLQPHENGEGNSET
- TEST NAME: Inhibition of human alphavbeta3 integrin stably expressed in human K562 cells assessed as inhibition of cell adhesion to GST-LAP1 incubated for 30 mins by BCECF-AM staining based fluorescence assay
pIC50: −log10 of the molar value.

[Q] Look up and state reported pIC50 for `Cc1cccc([C@H](CC(=O)O)C(=O)N2CC[C@@H](CCc3ccc4c(n3)NCCC4)C2)c1`
[A] 5.20

[Q] Look up and state reported pIC50 for `Cc1cc(C)cc([C@H](CC(=O)O)C(=O)N2CC[C@@H](CCc3ccc4c(n3)NCCC4)C2)c1`
[A] < 5.00

[Q] Look up and state reported pIC50 for `C=C(C)c1cccc([C@H](CC(=O)O)C(=O)N2CC[C@@H](CCc3ccc4c(n3)NCCC4)C2)c1`
[A] < 5.00

[Q] Look up and state reported pIC50 for `O=C(O)C[C@H](C(=O)N1CC[C@@H](CCc2ccc3c(n2)NCCC3)C1)c1cccc(Cl)c1`
[A] 5.20

[Q] Look up and state reported pIC50 for `O=C(O)C[C@H](C(=O)N1CC[C@@H](CCc2ccc3c(n2)NCCC3)C1)c1cccc(C2CC2)c1`
[A] < 5.00

[Q] Look up and state reported pIC50 for `O=C(O)C[C@H](C(=O)N1CC[C@@H](CCc2ccc3c(n2)NCCC3)C1)c1cccc(C(F)(F)F)c1`
[A] < 5.00

---

- MEASURED TARGET: Integrin alpha-V/beta-8 (Homo sapiens, UniProt P06756+P26012)
- Sequence (P06756 31-889 limits assumed): as the sequence (P06756 31-889 limits assumed) above
- Sequence (P06756 891-1048 limits assumed): as the sequence (P06756 891-1048 limits assumed) above
- Sequence (P26012 43-769 limits assumed): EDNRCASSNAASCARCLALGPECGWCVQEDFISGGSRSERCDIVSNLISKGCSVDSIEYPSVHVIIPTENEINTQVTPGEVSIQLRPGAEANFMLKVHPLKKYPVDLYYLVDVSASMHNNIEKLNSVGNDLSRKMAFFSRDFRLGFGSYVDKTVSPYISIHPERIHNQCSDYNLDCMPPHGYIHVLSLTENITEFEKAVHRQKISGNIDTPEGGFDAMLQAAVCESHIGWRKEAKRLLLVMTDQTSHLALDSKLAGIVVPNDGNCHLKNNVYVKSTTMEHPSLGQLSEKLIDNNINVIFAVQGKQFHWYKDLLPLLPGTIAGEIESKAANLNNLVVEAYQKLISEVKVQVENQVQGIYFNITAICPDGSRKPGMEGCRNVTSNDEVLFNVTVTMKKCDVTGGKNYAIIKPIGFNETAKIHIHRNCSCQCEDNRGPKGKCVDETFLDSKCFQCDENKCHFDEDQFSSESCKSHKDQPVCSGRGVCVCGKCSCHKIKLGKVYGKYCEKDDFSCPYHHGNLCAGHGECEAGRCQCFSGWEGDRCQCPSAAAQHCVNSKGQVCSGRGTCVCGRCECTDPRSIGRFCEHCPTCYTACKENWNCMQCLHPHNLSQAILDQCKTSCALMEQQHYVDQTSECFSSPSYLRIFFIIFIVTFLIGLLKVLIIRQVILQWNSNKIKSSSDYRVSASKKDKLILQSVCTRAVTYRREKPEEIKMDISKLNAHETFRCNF
- TEST NAME: Inhibition of integrin alphavbeta8 (unknown origin) by fluorescence polarization assay
pIC50: −log10 of the molar value.
READOUT LABEL: pIC50

[Q] Look up and state reported pIC50 for `O=C(O)C[C@H](C(=O)N1CC[C@@H](CCc2ccc3c(n2)NCCC3)C1)c1ccccc1`
[A] < 4.10

---

- MEASURED TARGET: Integrin alpha-V/beta-5 (Homo sapiens, UniProt P06756+P18084)
- Sequence (P06756 31-889 limits assumed): as the sequence (P06756 31-889 limits assumed) above
- Sequence (P06756 891-1048 limits assumed): as the sequence (P06756 891-1048 limits assumed) above
- Sequence (P18084 24-799 limits assumed): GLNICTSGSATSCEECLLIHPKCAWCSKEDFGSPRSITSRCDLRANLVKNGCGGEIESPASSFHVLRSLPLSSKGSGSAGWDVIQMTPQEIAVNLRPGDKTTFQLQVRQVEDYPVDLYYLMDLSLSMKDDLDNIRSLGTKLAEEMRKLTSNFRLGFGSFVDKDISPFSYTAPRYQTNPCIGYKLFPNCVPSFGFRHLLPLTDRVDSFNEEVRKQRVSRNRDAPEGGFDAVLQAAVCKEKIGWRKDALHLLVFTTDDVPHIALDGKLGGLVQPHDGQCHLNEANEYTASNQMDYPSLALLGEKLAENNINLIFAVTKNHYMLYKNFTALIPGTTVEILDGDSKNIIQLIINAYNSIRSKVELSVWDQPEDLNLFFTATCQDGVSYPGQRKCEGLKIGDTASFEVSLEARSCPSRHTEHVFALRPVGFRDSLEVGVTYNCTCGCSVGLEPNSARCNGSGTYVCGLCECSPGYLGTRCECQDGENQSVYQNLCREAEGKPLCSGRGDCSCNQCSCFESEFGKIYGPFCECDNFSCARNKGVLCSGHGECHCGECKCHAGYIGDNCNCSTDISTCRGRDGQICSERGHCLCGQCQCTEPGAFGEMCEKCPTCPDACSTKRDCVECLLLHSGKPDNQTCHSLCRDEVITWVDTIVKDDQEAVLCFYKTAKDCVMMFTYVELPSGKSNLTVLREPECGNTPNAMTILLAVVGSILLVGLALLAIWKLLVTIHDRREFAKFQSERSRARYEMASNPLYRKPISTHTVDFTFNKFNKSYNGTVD
- TEST NAME: Inhibition of integrin alphavbeta5 (unknown origin) by fluorescence polarization assay
READOUT LABEL: pIC50
Scale note: pIC50 = -log10(concentration in M).

[Q] Look up and state reported pIC50 for `O=C(O)C[C@H](C(=O)N1CC[C@@H](CCc2ccc3c(n2)NCCC3)C1)c1ccccc1`
[A] 8.40

[Q] Look up and state reported pIC50 for `Cc1csc([C@H](CC(=O)O)C(=O)N2CC[C@@H](CCc3ccc4c(n3)NCCC4)C2)c1`
[A] 8.50

[Q] Look up and state reported pIC50 for `CN1CCN(c2cccc([C@H](CC(=O)O)C(=O)N3CC[C@@H](CCc4ccc5c(n4)NCCC5)C3)c2)CC1`
[A] 8.00

[Q] Look up and state reported pIC50 for `O=C(O)C[C@H](C(=O)N1CC[C@@H](CCc2ccc3c(n2)NCCC3)C1)c1ccccc1Br`
[A] 5.90

[Q] Look up and state reported pIC50 for `O=C(O)C[C@H](C(=O)N1CC[C@@H](CCc2ccc3c(n2)NCCC3)C1)c1cccs1`
[A] 8.30

[Q] Look up and state reported pIC50 for `O=C(O)C[C@H](C(=O)N1CC(CCCc2ccc3c(n2)NCCC3)C1)c1ccccc1`
[A] 8.10

[Q] Look up and state reported pIC50 for `O=C(O)C[C@H](C(=O)N1CC[C@@H](CCc2ccc3c(n2)NCCC3)C1)c1cccc(N2CCOCC2)c1`
[A] 7.90

[Q] Look up and state reported pIC50 for `O=C(O)C[C@H](C(=O)N1CC[C@@H](CCc2ccc3c(n2)NCCC3)C1)c1cc(Br)cs1`
[A] 8.50

[Q] Look up and state reported pIC50 for `O=C(O)C[C@H](C(=O)N1CC[C@@H](CCc2ccc3c(n2)NCCC3)C1)c1cccc(C2=CCCC2)c1`
[A] 8.10

Sourced from ChEMBL document CHEMBL4706543
